experiment: Measurement (1): quantification of compound in brain and plasma by LC-MS/MS; type: in vivo; settings: iv at 3 mg/kg, according to measurement (1), mouse, read-out: Ratio: Amount present in the brain/Amount present in the plasma
measurement-kind: Kp

If you can, please state the reported Kp value of Cn1c(C(=O)N2CCC(C(N)=O)(c3ccccc3)CC2)cc(-c2ccc(Cl)cc2Cl)c1-c1ccc(OCC(N)=O)cc1 .
0.05
